- subject-of-test: human GPR119 (Homo sapiens)
- Construct: expressed in transfected cells; host or cells: HEK293 (transient transfection, Lipofectamine 2000)
- Sequence (Q8TDV5 whole entry): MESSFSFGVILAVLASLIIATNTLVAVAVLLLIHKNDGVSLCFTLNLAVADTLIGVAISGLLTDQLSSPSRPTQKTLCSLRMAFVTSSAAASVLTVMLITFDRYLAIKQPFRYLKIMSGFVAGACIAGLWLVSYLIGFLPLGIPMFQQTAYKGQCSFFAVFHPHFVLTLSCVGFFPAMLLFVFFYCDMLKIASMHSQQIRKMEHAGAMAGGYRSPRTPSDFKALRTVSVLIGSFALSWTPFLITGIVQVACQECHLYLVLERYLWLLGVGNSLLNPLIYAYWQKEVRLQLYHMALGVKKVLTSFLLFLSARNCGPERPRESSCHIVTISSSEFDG
- protocol: In vitro cyclic AMP assay (Cisbio HTRF) in HEK293 cells transfected with human GPR119
- Assay type: cell-based
- stated-conditions: 1 h, % Induction @ 10 μM, cAMP, Table II
assay-readout: activation at 10 µM (%)

Example results:
[[record]]
smiles_record = "CC(C)(C)OC(=O)N1CCC(c2ccc3nc(-c4ccc(C(F)(F)F)cc4)oc3c2)CC1"
result_units = "%"
observed_result = 13.2

[[record]]
smiles_record = "CC(C)(C)OC(=O)N1CCC(c2ccc3oc(-c4ccc(C(F)(F)F)cc4)nc3c2)CC1"
result_units = "%"
observed_result = 64.7


a: CS(=O)(=O)c1ccc(-c2nc3cc(C4CCN(S(=O)(=O)CCCO)CC4)ccc3o2)c(F)c1
b: CC(C)(C)OC(=O)N1CCC(c2ccc3sc(-c4ccc(S(C)(=O)=O)cc4F)nc3c2)CC1
stdin: Choose between a and b : whose measured activation at 10 µM value is numerically larger? Return value: the label identifying the chosen record.
stdout: b

// data source = patent US9181214B2
